Origin of measurements: patent US8450280B2

I'd be grateful if you could share measured Activity (%): hydrolytic activity of hK2 in relation to H-Pro-Phe-Arg-AMC for these entries.
target: hK2 (Homo sapiens); construct: made in house; assay: Kinetic constants of AMC substrate hydrolysis by hK2; format: biochemical; details: 100 μM substrate
Sequence (P20151 25-261): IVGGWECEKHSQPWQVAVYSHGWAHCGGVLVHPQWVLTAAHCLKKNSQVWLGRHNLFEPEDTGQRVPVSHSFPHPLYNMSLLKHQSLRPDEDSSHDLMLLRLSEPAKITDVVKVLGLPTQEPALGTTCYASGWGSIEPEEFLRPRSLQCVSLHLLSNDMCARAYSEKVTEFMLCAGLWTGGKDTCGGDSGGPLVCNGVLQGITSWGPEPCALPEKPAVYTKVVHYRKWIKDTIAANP
Residues, ends and D or L forms follow the SMILES beside them. *: point of attachment. AMC = Cc1cc(=O)oc2cc(N*)ccc12; Cbz = O=C(OCc1ccccc1)*; Boc = CC(C)(C)OC(=O)*
Numbers only, in %.

// known answers, use as guide
Cc1cc(=O)oc2cc(NC(=O)[C@H](CCCNC(=N)N)NC(=O)[C@H](CC(C)C)NC(=O)[C@H](CC(C)C)NC(=O)OCc3ccccc3)ccc12 : 7
Cc1cc(=O)oc2cc(NC(=O)[C@H](CCCNC(=N)N)NC(=O)[C@H](CCCNC(=N)N)NC(=O)[C@H](C)NC(=O)OCc3ccccc3)ccc12 [Ala Arg Arg-AMC, Z-Ala-Arg-Arg-AMC] (Cbz-Ala-Arg-Arg-{AMC}) : 33
Cc1cc(=O)oc2cc(NC(=O)[C@H](CCCNC(=N)N)NC(=O)[C@H](Cc3ccccc3)NC(=O)[C@@H]3CCCN3)ccc12 [Pro Phe Arg-AMC, H-Pro-Phe-Arg-AMC] (H-Pro-Phe-Arg-{AMC}) : 100

Query block: Item Cc1cc(=O)oc2cc(NC(=O)[C@H](CCCNC(=N)N)NC(=O)[C@@H]3CCCN3C(=O)[C@@H](NC(=O)OC(C)(C)C)C(C)C)ccc12 [Val Pro Arg-AMC, boc-Val-Pro-Arg-AMC] (Boc-Val-Pro-Arg-{AMC}) : provide Activity (%): hydrolytic activity of hK2 in relation to H-Pro-Phe-Arg-AMC
Result block: 6
